Parameter: GI50. Scope: all listed entries.
test system: HOP-92; experiment: NCI tumour cell line growth inhibition, 48 h
The source made the active and inactive calls. Rule as the data show it: active = GI50 up to about 1.1 µM and inactive = higher.

COc1cc(=O)n2c3ccccc3n(C)c2c1C#N = > 100 µM (inactive)
CCCCC1Cc2cc(OC)ccc2-c2nc3cc(OC)ccc3n21.CCCCC1Cc2cc(OC)ccc2-c2nc3ccc(OC)cc3n21 (stereo not drawn) = 2.06 µM (inactive)
O=C1c2cc(Br)ccc2-c2ccc3c4ccc5c6c(ccc(c7ccc1c2c73)c64)C(=O)c1cc(Br)ccc1-5 = > 100 µM (inactive)

Form field: GI50 recorded for CCCCC[C@@H]1CCCC2NC(CCCCCO[Si](c3ccccc3)(c3ccccc3)C(C)(C)C)CCC21 (stereo partly drawn) with HOP-92 (enter value)
10.1 µM (inactive)

Also need COc1ccc(Nc2nc(NNC(=O)Cc3ccccc3)nc(NNC(=O)c3ccncc3)n2)cc1 , thanks.
> 10 µM (inactive)

Also need Cn1c(-c2ccccc2)cc(-c2ccsc2)c1-c1ccsc1 , thanks.
> 100 µM (inactive)

Also need NC(CCCNCc1ccccc1)C(=O)O (stereo not drawn) , thanks.
> 100 µM (inactive)

Also need CN(C)CCNC(=O)c1cccc2nc3cccc(F)c3nc12 , thanks.
1.22 µM (inactive)

Also need O=C1C(Cl)=C(Cl)C(=O)N1c1ccc(F)cc1 [FLUOROIMIDE] , thanks.
17.6 µM (inactive)

Also need Cc1ccc(S(=O)(=O)ON2C(=O)c3c(N)c(C#N)c(-c4ccccc4)c(-c4ccccc4)c3C2=O)cc1 , thanks.
21.6 µM (inactive)
